Exercise: state measured CC50 at 24 h for each of the compounds provided.
# assay_procedure: MTT cell viability assay for cytotoxic concentration 50% (CC50)
# Assay type: cell-based
# measurement_conditions: African green monkey
Numbers only, in µM.

Some entries whose results are on file:
| compound | measurement_kind | quantitative_readout |
| --- | --- | --- |
| COc1cc(C(OC)C(COC(C)=O)Oc2ccc(/C=C/COC(C)=O)cc2OC)ccc1O (stereo not shown) | CC50 at 24 h | 71.6 |
| Nc1nc2c(ncn2COCCO)c(=O)[nH]1 [Acyclovir, reference compound] | CC50 at 24 h | 100 |
| COc1cc2ccc(=O)oc2cc1OC | CC50 at 24 h | 0.35 |

Batch of 4 compounds: report CC50 at 24 h for each.
1. C=CC(OC)c1cc(OC)c2c(c1)[C@@H](COC(C)=O)[C@H](c1ccc(O)c(OC)c1)O2 (relative stereo)
2. COc1cc([C@H]2Oc3c(OC)cc(/C=C/COC(C)=O)cc3[C@@H]2COC(C)=O)ccc1O [Compound 5, dehydrodiconiferyl-diacetate]
3. C=C(CC[C@@H](C)[C@H]1CC[C@@]2(C)C3=C(C(=O)C[C@]12C)[C@@]1(C)CC[C@H](O)C(C)(C)[C@@H]1C[C@@H]3O)C(C)C
4. COc1cc2c(=O)oc3c(OC)c(O)cc4c(=O)oc(c1OC)c2c34

Result:
1: 39.8; 2: 82.5; 3: 35.5; 4: 25.7

---

Exercise: state measured Selectivity Index for each of the molecules provided.
# System: HSV-2
# assay_procedure: Anti-HSV-2 qRT-PCR assay on infected Vero cells
# measurement_conditions: SI = CC50/IC50
One number for each entry.

Batch of 5 molecules: report Selectivity Index for each.
1. Nc1nc2c(ncn2COCCO)c(=O)[nH]1 [Acyclovir, reference compound]
2. COc1cc2ccc(=O)oc2cc1OC
3. C=CC(OC)c1cc(OC)c2c(c1)[C@@H](COC(C)=O)[C@H](c1ccc(O)c(OC)c1)O2 (relative stereo)
4. C=C(CC[C@H](C)[C@@H]1CC[C@@]2(C)C3=C(CC[C@]12C)[C@@]1(C)CC[C@H](O)C(C)(C)[C@@H]1CC3=O)C(C)C
5. C=C(CC[C@@H](C)[C@H]1CC[C@@]2(C)C3=C(C(=O)C[C@]12C)[C@@]1(C)CC[C@H](O)C(C)(C)[C@@H]1C[C@@H]3O)C(C)C

Result:
1. 129.87
2. 10.923
3. 3.389
4. 3.23
5. 5.03

---

# Test system: HSV-2
# assay_procedure: Anti-HSV-2 qRT-PCR assay on infected Vero cells
# measurement_conditions: Human alphaherpesvirus 2, Vero, read-out: IC50 (anti-HSV-2)
measurement_kind: IC50 (µM)
Numbers only, in µM.

Query: Which measured IC50 belongs to COc1cc2ccc(=O)oc2cc1OC , tested on HSV-2?
Result: 0.032
